Measured combination Emax, listed per entry.
- System: KM12 (Colorectal Carcinoma)
- Run description: combination Emax (second highest fraction inhibited in the dose matrix, 72 h); higher = more inhibition; extreme values may be limits of the assay
Give the value as a plain number.

CN(CCO)CC[C@H](CSc1ccccc1)Nc1ccc(S(=O)(=O)NC(=O)c2ccc(N3CCC([C@@H](O)c4ccccc4-c4ccc(Cl)cc4)CC3)cc2)cc1S(=O)(=O)C(F)(F)F [AZD4320] + C[C@@H]1COCCN1C2=NC(=NC(=C2)C3(CC3)[S@](=N)(=O)C)C4=C5C=CNC5=NC=C4 [AZD6738] (first compound max 1 µM, 7x7, partner max 10 µM) : 0.764

# next molecule below
get_value(item= CC1(C)CCC(CN2CCN(c3ccc(C(=O)NS(=O)(=O)c4ccc(NCC5CCOCC5)c([N+](=O)[O-])c4)c(Oc4cnc5[nH]ccc5c4)c3)CC2)=C(c2ccc(Cl)cc2)C1 [Venetoclax] + C1CN(CCC1(C(=O)N[C@@H](CCO)C2=CC=C(C=C2)Cl)N)C3=NC=NC4=C3C=CN4 [Capivasertib] (first compound max 1 µM, 7x7, partner max 3 µM) , readout=combination Emax) returns 0.501

====

- Tested on: SW837 (Colorectal Carcinoma)
- Run description: Bliss excess, mean over the matrix (fraction); higher = more synergy
Measured Bliss excess, listed per entry.
Give the value as a plain number.

Example entries and their recorded answers appear below.
COc1nnc2ccc(N3CCC(c4ccc(OCCN5CCN(C)C(=O)[C@H]5C)cc4)CC3)nn12 [AZD5153] + CCN(CCO)CCCOc1ccc2c(Nc3cc(CC(=O)Nc4cccc(F)c4)[nH]n3)ncnc2c1 [AZD2811] (first compound max 1 µM, 7x7, partner max 1 µM) : -0.0663
CC1(C)CCC(CN2CCN(c3ccc(C(=O)NS(=O)(=O)c4ccc(NCC5CCOCC5)c([N+](=O)[O-])c4)c(Oc4cnc5[nH]ccc5c4)c3)CC2)=C(c2ccc(Cl)cc2)C1 [Venetoclax] + CN(C)CCCOc1ccc(-c2ccc3ncc4c(c3c2)n(C2CCOCC2)c(=O)n4C)cn1 [AZD0156] (first compound max 1 µM, 7x7, partner max 1 µM) : -0.0067

# next compound below
get_value(item= CCc1c2c(nc3ccc(O)cc13)-c1cc3c(c(=O)n1C2)COC(=O)[C@]3(O)CC [SN-38] + O=C(c1cc(Cc2n[nH]c(=O)c3ccccc23)ccc1F)N1CCN(C(=O)C2CC2)CC1 [Olaparib] (first compound max 0.3 µM, 7x7, partner max 10 µM) , readout=Bliss excess) returns 0.0302

====

- Test system: KARPAS-45 (T-Lymphoblastic Leukemia)
- Run description: Bliss excess, mean over the matrix (fraction); higher = more synergy
Measured Bliss excess, listed per entry.

get_value(item= CN(C)CCCOc1ccc(-c2ccc3ncc4c(c3c2)n(C2CCOCC2)c(=O)n4C)cn1 [AZD0156] + C=CCn1c(=O)c2cnc(Nc3ccc(N4CCN(C)CC4)cc3)nc2n1-c1cccc(C(C)(C)O)n1 [AZD1775] (first compound max 1 µM, partner max 1 µM) , readout=Bliss excess) returns -0.0182

get_value(item= CN(CCO)CC[C@H](CSc1ccccc1)Nc1ccc(S(=O)(=O)NC(=O)c2ccc(N3CCC([C@@H](O)c4ccccc4-c4ccc(Cl)cc4)CC3)cc2)cc1S(=O)(=O)C(F)(F)F [AZD4320] + C1CN(CCC1(C(=O)N[C@@H](CCO)C2=CC=C(C=C2)Cl)N)C3=NC=NC4=C3C=CN4 [Capivasertib] (first compound max 1 µM, 7x7, partner max 3 µM) , readout=Bliss excess) returns 0.0265

get_value(item= C=CCn1c(=O)c2cnc(Nc3ccc(N4CCN(C)CC4)cc3)nc2n1-c1cccc(C(C)(C)O)n1 [AZD1775] + C[C@@H]1COCCN1C2=NC(=NC(=C2)C3(CC3)[S@](=N)(=O)C)C4=C5C=CNC5=NC=C4 [AZD6738] (first compound max 1 µM, partner max 10 µM) , readout=Bliss excess) returns 0.0465
